Just for reference, ChEMBL document CHEMBL1255552 is where these values come from.

- procedure-text: Oral bioavailability in mouse at 30 mg/kg
- Type: ADME, organism-based
- experimental-context: in vivo
quantity: bioavailability (%)
Give bare numbers, in %.

Ask | Returns the measured bioavailability for the input compound. Input: COc1cc2nc(-c3ccsc3)c(CNCCc3ccc(Br)cc3)cc2cc1O
Reply | 10

###

Would you mind telling me the reported half-life of each entry?
- procedure-text: Half life in mouse at 30 mg/kg, po
- Type: ADME, organism-based
- Parameters: dose 30 mg/kg, route oral
- experimental-context: in vivo
One number for each entry, in h.

List reported half-life for each of these molecules:
1. Oc1ccc2cc(CNCCc3ccc(Br)cc3)c(-c3ccsc3)nc2c1
2. COc1cc2nc(-c3ccsc3)c(CNCCc3ccc(Br)cc3)cc2cc1O

Reply |
1. 4.4
2. 7.7
